Values compiled from paper PMC4900628.

measurement description: Plasma and brain concentration in rats (after PTZ-kindling)
Type: in vivo
stated conditions: rat, brain, ip, 50 mg/kg i.p., 45 min after injection, read-out: rat brain concentration
experimental endpoint: concentration at 45 min (nM)
Hi! Could you send only the number? It should be in nM, unit omitted.

Query :: Using the record for "CCOc1ccc(Nc2ccc(/C(=C3C=C/C(=[N+](/CC)Cc4cccc(S(=O)(=O)[O-])c4)C=C/3C)c3ccc(N(CC)Cc4cccc(S(=O)(=O)O)c4)cc3C)cc2)cc1" , report its concentration at 45 min.
Result :: 20

###

measurement description: Plasma and brain concentration in rats (after PTZ-kindling)
Type: in vivo
stated conditions: rat, plasma, ip, 30 mg/kg i.p., 45 min before, n = 5, read-out: mean blood plasma concentration
experimental endpoint: concentration at 45 min (µM)
I only need the number, in µM, no unit after it.

Query :: If you can, please state the reported concentration at 45 min value of Cc1c(S(=O)(=O)[O-])oc2c1C(=O)C(=O)c1c-2ccc2c1CCCC2(C)C.[Na+] [Tanshinone TIIAS, tanshinone IIS sulfonic sodium] .
Result :: 31.1

###

measurement description: Plasma and brain concentration in mice (co-administration with AEDs)
Assay type: in vivo
stated conditions: mouse, brain, intraperitoneal, 7 mg/kg, MES-T, CBZ 7 mg/kg i.p., n = 6, read-out: brain concentration of CBZ alone
experimental endpoint: concentration at 30 min
Returns: string containing the number followed by the unit.

Query :: Given the compound NC(=O)N1c2ccccc2C=Cc2ccccc21 [carbamazepine] , what is its reported concentration at 30 min?
Result :: 22.8 µM

###

measurement description: Plasma and brain concentration in rats (after PTZ-kindling)
Type: in vivo
stated conditions: rat, brain, sc, 15 mg/kg, 15 mg/kg s.c., 30 min, read-out: brain to plasma ratio
experimental endpoint: Kp at 0.5 h
Form rule: numeric answer, no unit written next to it.

Query :: Fill blank: measured Kp at 0.5 h of the compound "O=C(NCC1(N2CCN(c3ccccc3)CC2)CCOCC1)c1cccnc1Sc1ccccc1" is ____.
Result :: 1.2

###

measurement description: Plasma and brain concentration in rats (after PTZ-kindling)
Assay type: in vivo
stated conditions: rat, brain, sc, 15 mg/kg s.c., 30 min before, n = 5, read-out: mean brain concentration
experimental endpoint: concentration at 30 min (µM)
Provide the reading as a plain figure in µM.

Query :: Dear colleague, I am looking for the recorded concentration at 30 min of the following compound: "O=C(NCC1(N2CCN(c3ccccc3)CC2)CCOCC1)c1cccnc1Sc1ccccc1"
Result :: 5

###

measurement description: Plasma and brain concentration in rats (after PTZ-kindling)
Format: in vivo
stated conditions: rat, brain, ip, 50 mg/kg, 50 mg/kg i.p., 45 min, read-out: brain to plasma ratio
experimental endpoint: Kp at 0.75 h
// return just the number, without any unit appended

Query :: Find the recorded Kp at 0.75 h belonging to "CCOc1ccc(Nc2ccc(/C(=C3C=C/C(=[N+](/CC)Cc4cccc(S(=O)(=O)[O-])c4)C=C/3C)c3ccc(N(CC)Cc4cccc(S(=O)(=O)O)c4)cc3C)cc2)cc1" and report it.
Result :: 0.01
